- Target of assay: Carbonic anhydrase 2 (Homo sapiens, UniProt P00918)
Metric name: Ki (nM)
Numbers only; they are read as nM.

Input line: So what Ki did `NS(=O)(=O)c1ccc(CNC(=O)c2ccccc2Cc2ccccc2)cc1` get with Carbonic anhydrase 2 (Homo sapiens, UniProt P00918)?
Output line: 54.4
